details: 313.15 K; 101.33 kPa; Liquid
measured.attribute: log10(viscosity) (log10 of the value in mPa·s)
The common logarithm of viscosity in mPa·s is what is listed.

Example results:
Request: # get_value(readout='log10(viscosity)', item= CCCCCCn1cc[n+](CCC#N)c1.O=S(=O)([O-])c1ccccc1 [3-(2-cyanoethyl)-1-hexyl-1H-imidazolium benzenesulfonate] )
Result: 3.07

Request: What value of measured log10(viscosity) is listed for "CCCCCCn1cc[n+](CCC#N)c1.O=S(=O)([O-])C(F)(F)F" ?
Result: 2.64

Request: Fill in the blank: the reported log10(viscosity) of CCCCCCn1cc[n+](CCC#N)c1.O=C([O-])c1cccc(S(=O)(=O)O)c1 [3-(2-cyanoethyl)-1-hexyl-1H-imidazolium 3-sulfobenzoate] is ____.
Result: 3.48

Dear reader, for each entry below, please note its log10(viscosity).
1. CCCCCCCCCCCCOS(=O)(=O)[O-].CCCCCCn1cc[n+](CCC#N)c1 [3-(2-cyanoethyl)-1-hexyl-1H-imidazolium dodecyl sulfate]
2. CCCCC(CC)COC(=O)CC(C(=O)OCC(CC)CCCC)S(=O)(=O)[O-].CCCCCC[n+]1ccn(CCC#N)c1 (stereo not given)

Result:
3.53
3.66
